system: SF-268 CNS; test: NCI tumour cell line growth inhibition, 48 h
measureName: TGI

{"compound": "CC(C)(C)NCC(O)c1ccccc1Cl (centres undefined)", "subjectOfTest": "SF-268 CNS", "TGI": "> 100 µM"}
{"compound": "CC(=O)NC1C(OCc2ccccc2)OC(CO)C(O)C1OC(C)C(=O)NC(C(=O)NC(CCC(=O)NCCCNc1ccc([N+](=O)[O-])c2[nH]c3ccccc3c(=O)c12)C(N)=O)C(C)C (centres undefined)", "subjectOfTest": "SF-268 CNS", "TGI": "> 100 µM"}
{"compound": "COc1cc(OC)c(/C=C/C(=O)c2c(OC)cc(OC)cc2OC)c(OC)c1", "subjectOfTest": "SF-268 CNS", "TGI": "6.96 µM"}
{"compound": "CC(=O)C1=C(C)N(Cc2ccccc2)C2(O)C=CC(=O)C3=C(O)c4ccccc4C(=O)C312 (centres undefined)", "subjectOfTest": "SF-268 CNS", "TGI": "29.1 µM"}
{"compound": "CC1=CC2(C)/C=C(C)/C=C\\CC(O)/C=C3/C=CC(=C4C(=O)OC2(CC1C)C4=O)OC3 (centres undefined)", "subjectOfTest": "SF-268 CNS", "TGI": "4.75 µM"}

Now consider a different compound.
Form: compound = CCCCCCCCCCCC(=O)N(CCCCCCCCC)CC(O)C(O)C(OC1OC(CO)C(O)C(O)C1O)C(O)CO (centres undefined) ; TGI = 39.3 µM

====

Each entry below lists one item and its recorded TGI value.
test system: MALME-3M melanoma; experiment: NCI tumour cell line growth inhibition, 48 h

{"molecule": "O=c1oc2ccccc2c(O)c1C(c1ccc(OCc2ccccc2)cc1)c1c(O)c2ccccc2oc1=O", "TGI": "> 100 µM"}
{"molecule": "CSc1nnnc2ccccc12", "TGI": "> 100 µM"}
{"molecule": "O=C(O)C(Cc1ccccc1)Cc1ccccc1", "TGI": "> 100 µM"}
{"molecule": "N#Cc1ccc(-c2ccc(Cl)cc2)n(C2OC(CO)C(O)C(O)C2O)c1=S (configuration not stated)", "TGI": "> 100 µM"}
{"molecule": "O=C(CCCCCNC(=O)c1ccc(Cl)cc1)NO", "TGI": "> 100 µM"}
{"molecule": "CN(C(=O)C(C)(C)C)c1ccccc1I(=O)=O", "TGI": "> 100 µM"}
{"molecule": "OC(c1cc(C(F)(F)F)nc2c(Cl)cc(Cl)cc12)C1CCCCN1 (configuration not stated)", "TGI": "> 36.9 µM"}
{"molecule": "CC1CN(c2cc3c(cc2F)c(=O)c(C(=O)O)cn3-c2ccc(N3CCN(C)CC3)cn2)CC(C)N1 (configuration not stated)", "TGI": "> 100 µM"}

Form: molecule = C[Si](C)(C)OC1(C#N)c2ccccc2CCCC12CCCC2 (configuration not stated) ; TGI = > 100 µM

Form: molecule = CC1=CC(C)=N/C(=N/S(=O)(=O)c2cc(C)c(Cl)cc2SCc2ccccc2)NN1 ; TGI = > 100 µM

Form: molecule = CCOC(=O)C1=C(Nc2ccc(OC)cc2)C(N)=NC1=N ; TGI = > 100 µM

Form: molecule = N#CCCN(CCCCN(CCC#N)C(=O)Nc1ccccc1)C(=O)Nc1ccccc1 ; TGI = > 100 µM

====

system: TK-10 renal; assay: NCI tumour cell line growth inhibition, 48 h
measureName: GI50

Form: molecule = COc1cccc(N2CC(O)=C(c3nc4ccccc4s3)C2=N)c1 ; GI50 = 3240 nM

Form: molecule = COC(=O)[C@]1(C)CCC[C@@]2(C)C3=C(CC[C@H]12)C[C@@H](CC(OC(C)=O)OC(C)=O)[C@@H](C)C3 ; GI50 = 13500 nM

====

tested on: SF-539 CNS; test: NCI tumour cell line growth inhibition, 48 h
measureName: TGI

Field: example entries. Status: answers known.
{"compound": "O=c1c(O)c(-c2ccccc2)oc2c(CP(=O)(O)O)cccc12", "TGI": "> 100 µM"}
{"compound": "Nc1nc2cc(Cl)ccc2n1N", "TGI": "> 100 µM"}
{"compound": "Oc1c(C(c2ccc(F)cc2)N2CCCCC2)ccc2cncnc12 (centres undefined)", "TGI": "> 81.2 µM"}

Now consider a different compound.
Form: compound = CCC[N+](C)(C)CCCNC(=O)c1c(O)c2ccccc2[nH]c1=O ; TGI = > 100 µM

====

tested on: OVCAR-4 ovarian; assay: NCI tumour cell line growth inhibition, 48 h
Each entry below lists one item and its recorded TGI value.

Field: example entries. Status: answers known.
{"molecule": "O=C(O)C(Cc1ccccc1)Cc1ccccc1", "TGI": "> 100 µM"}
{"molecule": "COc1ccc(C(=O)/C=C/c2ccc(OCc3cccc(C(F)(F)F)c3)c(OC)c2)cc1OC", "TGI": "> 1000 µM"}
{"molecule": "COC(=O)/C1=C/C=C\\C[C@@]2(C)CC(c3ccoc3)OC(=O)[C@@H]2CC[C@H]1C (some centres not stated)", "TGI": "> 25 µM"}
{"molecule": "O=C(Nc1cccc([N+](=O)[O-])c1)c1cccc(C(=O)Nc2cccc([N+](=O)[O-])c2)c1", "TGI": "> 100 µM"}
{"molecule": "CCOC(=O)c1nc2ccccc2nc1Nc1ccc(C(=O)OC)s1", "TGI": "> 100 µM"}

Form: molecule = COC(=O)C1=C(C)NC(=S)NC1c1ccc(N(CCCl)CCCl)cc1Cl (configuration not stated) ; TGI = > 84.1 µM

Form: molecule = CCSC12OC3(CCCCCN3C1=O)C1C(=O)N(c3ccccc3)C(=O)C12 (configuration not stated) ; TGI = > 100 µM

====

system: HCC-2998 colon; assay: NCI tumour cell line growth inhibition, 48 h
measureName: TGI (µM)
Expressed in µM, but write only the number.

Field: example entries. Status: answers known.
{"compound": "Cc1ccc(/C=c2\\c(=O)[nH]c3nc4ccccc4c(=O)n23)cc1", "quantitativeResult": 62.6}
{"compound": "CCN1CCN(C(=O)[C@]23CC[C@@H](C)[C@H](C)[C@@H]2C2=CC[C@@H]4[C@@]5(C)CCC(=O)C(C)(C)[C@@H]5CC[C@@]4(C)[C@]2(C)CC3)CC1", "quantitativeResult": 1.82}
{"compound": "COc1cc2c(cc1OC)C(Cl)C(c1ccc(Br)cc1)=C2Cl (stereo unspecified)", "quantitativeResult": 27.4}

Form: compound = CC1(C)C2CC3C(C)(C2)C31c1cc(Cl)ccc1N (stereo unspecified) ; TGI = 28.2

====

system: CAKI-1 renal; experiment: NCI tumour cell line growth inhibition, 48 h; in the data active = GI50 below about 0.43 µM; inactive = the rest
Choose one outcome from this list and give only that: 1 = active, -1 = inactive

{"smilesRecord": "NS(=O)(=O)c1ccc(-n2nc3c(c2-c2cccs2)Cc2ccccc2-3)cc1", "classification": -1}
{"smilesRecord": "Cc1cc(I)cc(CN(C)CCCN2CCC(C)CC2)c1O", "classification": -1}
{"smilesRecord": "COc1ccc2c3ccnc(C(F)(F)F)c3n(CCCCN)c2c1", "classification": -1}

Moving on to the next molecule.
## Task Assay outcome for COC(=O)Nc1nc2ccc(C(=O)c3cccc(I)c3)cc2[nH]1 : what was it?
## Result 1

====

Each entry below lists one item and its recorded TGI value.
system: MCF7 breast; experiment: NCI tumour cell line growth inhibition, 48 h

Given the molecule CCN1CCN(c2ccc(NC(=O)Nc3nc4ccc(-c5ccccc5OC)cc4s3)cc2)CC1 and test system MCF7 breast, the measured TGI is 2.86 µM

Given the molecule C=C(C)C1(Sc2ccc(OC)cc2)CC1 and test system MCF7 breast, the measured TGI is > 100 µM

Given the molecule COC1(OC)CC(CO)(COc2cc(Cl)nc(N)n2)C1 and test system MCF7 breast, the measured TGI is > 100 µM

====

test system: SF-295 CNS; assay: NCI tumour cell line growth inhibition, 48 h
Each entry below lists one item and its recorded TGI value.

Field: example entries. Status: answers known.
{"compound": "Oc1c(C(Nc2ccccn2)c2ccccc2)ccc2cccnc12 (stereo not given)", "measureName": "TGI", "result": "> 30.3 µM"}
{"compound": "CC(=O)C1=C(C)N(Cc2ccccc2)C2(O)C=CC(=O)C3=C(O)c4ccccc4C(=O)C312 (stereo not given)", "measureName": "TGI", "result": "27.9 µM"}

Form: compound = O=C1C=CC2C3C(=O)N(c4ccccc4)C(=O)C3C1N2Cc1ccccc1 (stereo not given) ; TGI = 15.4 µM

Form: compound = CC(C)N1CC2CC(CN(C(=O)c3ccc(Cl)cc3)C2)C1 ; TGI = > 100 µM

Form: compound = COc1cc2ncnc(Oc3ccc(NC(=O)Nc4ccc(CN5CCOCC5)c(C(F)(F)F)c4)c4ccccc34)c2cc1OC ; TGI = 5.54 µM
